- Tested on: ACHN renal
- experimental.details: NCI-60 one-dose screen, 48 h (100 = growth as untreated, 0 = no growth, -100 = all killed)
- assay.conditions: 10 µM unless noted
The panel holds about 83,000 compounds, 20% with a hit somewhere; the sample as a whole holds those more often.
assay.metric: growth (%)
Hi! Could you send only the number? It should be in %, unit omitted.

compound.smiles | growth [%]
CNC(=O)c1cc(Oc2ccc3c(c2)sc2nc(-c4ccc(NC(=O)[C@@H](NC(=O)OC)C(C)C)cc4)cn23)ccn1 | 83.3

Param item = O=c1c2ccccc2n(C[C@H]2CO2)c2ccccc12 ; retrieve measured growth.
-26.6

Param item = CCOC(=O)/C(=C(/C)NCC(C)C)c1cc(O)c(O)c2c(C)cc(=O)[nH]c12 ; retrieve measured growth.
47.8

Param item = CS(=O)(=O)c1ccc(-c2nc3ccccc3n2CC(=O)N/N=C/c2ccccc2)cc1 ; retrieve measured growth.
101

Param item = Cn1cc(-c2csc(-c3cn(CCCN4CCOCC4)c4ccc(F)cc34)n2)c2cccnc21 ; retrieve measured growth.
63.8

Param item = COCCn1cc(-c2nc(-c3cn(CCOC)c4ncccc34)cs2)c2cc(F)ccc21 ; retrieve measured growth.
76.7

----------
- Test system: UACC-257 melanoma
- experimental.details: NCI-60 one-dose screen, 48 h (100 = growth as untreated, 0 = no growth, -100 = all killed)
- assay.conditions: 10 µM unless noted
About 83,000 compounds went through this panel and 20% of them were active in at least one assay; those are over-represented in the sample as a whole.
assay.metric: growth (%)
Hi! Could you send only the number? It should be in %, unit omitted.

// worked examples, growth included
compound.smiles | target.under.test | growth (%)
COc1ccc(/C=C(\C(=O)NCc2cccnc2)S(=O)(=O)c2ccccc2)cc1OC | UACC-257 melanoma | 44.7
C=C1C(=O)O[C@H]2[C@H]1CC/C(COC(=O)NCc1ccc(Cn3c(=O)sn(-c4ccccc4)c3=O)cc1)=C\CC[C@@]1(C)O[C@@H]21 | UACC-257 melanoma | 68.3
COc1ccc(CNc2ccc3nc(NC(=O)CN4CCCCCC4)sc3c2)cc1 | UACC-257 melanoma | 86
COc1ccc(-c2cc(-c3cn(-c4cccc(Cl)c4)nc3-c3ccc(OC)cc3)on2)cc1 | UACC-257 melanoma | 112
CN1CCN(Cc2ccc(NC(=O)c3cncc(C#Cc4cnc(N)cc4C#N)c3)cc2C(F)(F)F)CC1 | UACC-257 melanoma | 3.84

Param item = COCC(=O)Oc1cc(-c2ccc(C)cc2C)c(OC(=O)COC)c(-c2ccc(C)cc2C)c1 ; retrieve measured growth.
71.2

Param item = COCCn1cc(-c2nc(-c3cc4cccnc4n3C)cs2)c2ccccc21 ; retrieve measured growth.
49

Param item = Cc1c2ncccc2nc2[nH]c3ccc(OCCN(C)C)cc3c12 ; retrieve measured growth.
46.1

Param item = Cc1nn(C)c2ncnc(N/N=C/c3cccc(O)c3O)c12 ; retrieve measured growth.
3.75

----------
- Tested on: K-562 leukemia
- experimental.details: NCI-60 one-dose screen, 48 h
- assay.conditions: 10 µM unless noted
Compounds without any hit were thinned out: in the full panel of roughly 83,000, 20% have a hit. The source made the active and inactive calls. Rule for the calls: active = growth percent below 10; inactive = the rest.
Result category, one only: 1 for active, -1 for inactive

Sample answers from the record:
molecule | classification
CC1(C)CC[C@]23CC[C@]4(C)[C@H](CC[C@@H]5[C@@]6(C)CCNCC(C)(C)[C@@H]6CC[C@]54C)[C@H]2[C@H]1OC3 | -1
O=C(Nc1nc(Cl)nc(Nc2ccc(N3CCOCC3=O)cc2)n1)c1ccc(Cl)s1 | -1
COc1ccc(N/N=C/c2cn(-c3ccc(C(=O)O)cc3)nc2-c2cc3ccccc3oc2=O)cc1 | -1
COC1C(O)CC(OC2CC(OC3CC(O[C@@H]4C(=O)c5c(cc6cc(OC7CC(OC8CC(O)C(O)C(C)O8)C(O)C(C)O7)c(C)c(O)c6c5O)CC4[C@H](OC)[C@@H](O)C(C)=O)OC(C)C3O)OC(C)C2O)OC1C (some centres not stated) | 1
Cc1c2cnccc2c(C)c2c1c1cc(CO)ccc1n2C | 1

Please share the test call associated with O=C1C=CC2(O)OC/C(=C\c3ccccc3)C(O)=C2C1=O (configuration not stated) .
1

Please share the test call associated with CCOC(=O)c1ccc[nH]1 .
-1

----------
- Tested on: PC-3 prostate
- experimental.details: NCI-60 one-dose screen, 48 h (100 = growth as untreated, 0 = no growth, -100 = all killed)
- assay.conditions: 10 µM unless noted
The panel holds about 83,000 compounds, 20% with a hit somewhere; the sample as a whole holds those more often.
assay.metric: growth (%)
Hi! Could you send only the number? It should be in %, unit omitted.

compound | measure.unit | value.measured
O=C(Nc1cc(Cl)ccc1O)c1ccccc1Nc1ccnc(C(F)(F)F)c1 | % | 7.3
CS(=O)(=O)Nc1cc(-c2ccc3ncnc(Nc4ccc5c(cnn5Cc5ccccc5F)c4)c3c2)cnc1Cl | % | 37.5

Notebook: pull reported growth for PC-3 prostate, entry O=c1cc(-c2ccccc2)nc(SCc2nc3cc(Cl)c(Cl)cc3[nH]2)[nH]1
103

Notebook: pull reported growth for PC-3 prostate, entry O=c1cc(CP(=O)(O)O)c2cc(O)c(-c3ccccc3)cc2o1
98.6

Notebook: pull reported growth for PC-3 prostate, entry CC(=O)O[C@H]1CC[C@]2(C)[C@H]3CC=C4[C@@H]5CC(C)(C)CC[C@]5(C(=O)N5CCN(CCC#N)CC5)CC[C@@]4(C)[C@]3(C)CC[C@H]2C1(C)C
19.5

Notebook: pull reported growth for PC-3 prostate, entry Cn1c(C#N)ccc1-c1ccc(F)c(NC(=O)c2ccc(F)cc2)c1
80.9

Notebook: pull reported growth for PC-3 prostate, entry COCCOC(C)C(/C=N/NC(N)=S)=N/NC(N)=S (centres undefined)
27.9

Notebook: pull reported growth for PC-3 prostate, entry Nc1c(Br)cc2c(c1Br)Cc1cc([N+](=O)[O-])ccc1-2
87.9

Notebook: pull reported growth for PC-3 prostate, entry c1ccc(-c2c(-c3ccccc3)[n+](Cc3ccc4ccccc4c3)cn2Cc2ccc3ccccc3c2)cc1
-91.8

----------
- System: SW-620 colon
- experimental.details: NCI-60 one-dose screen, 48 h
- assay.conditions: 10 µM unless noted
About 83,000 compounds went through this panel and 20% of them were active in at least one assay; those are over-represented in the sample as a whole. Activity calls are given as the source filed them. How the source made its calls: active means growth percent below 10; inactive means the rest.
Result category, one only: active, inactive

Please share the test call associated with CC(C)Cc1nc(Nc2ccccc2)[nH]c(=O)c1C#N .
inactive

Please share the test call associated with CCCn1c(=S)sc2c(NNC(C)=O)nc(C)nc21 .
inactive

Please share the test call associated with CNC(=O)Nc1ccc(-c2ccc3ncnc(Nc4cccc(Cl)c4)c3c2)cc1 .
inactive

----------
- Tested on: NCI-H226 lung
- experimental.details: NCI-60 one-dose screen, 48 h (100 = growth as untreated, 0 = no growth, -100 = all killed)
- assay.conditions: 10 µM unless noted
This is part of a sample that, as a whole, favours compounds with a hit. Of some 83,000 tested, about 20% had one in any assay.
assay.metric: growth (%)
Hi! Could you send only the number? It should be in %, unit omitted.

compound | growth (%)
N#Cc1ccc(O)c(C2=NCC(c3ccc(-c4ccccc4)cc3)O2)c1 (stereo unspecified) | 29.8
O=C1C=C(SCCO)C(=O)c2ccccc21 | 95.6
Cc1c2ccccc2nc2cc3c(cc12)[C@H]1CC[C@]2(C)C(=O)CC[C@H]2[C@@H]1CC3 | 91.8
CCOC(=O)C/C(=N\Nc1cc(=O)[nH]c2ccc(C)cc12)C(=O)OCC | 93.3
CCN(CC)CCOc1ccc2ccc(=O)oc2c1 | 106

Param item = C=CN(C(=O)N1CCN(c2cc3c(cc2F)c(=O)c(C(=O)O)cn3C2CC2)CC1)c1nc(-c2ccc(Cl)cc2)cs1 ; retrieve measured growth.
87.9

Param item = COc1ccc(/C=C2\c3cc(OC)c(OC)c(OC)c3CC[C@@H]2O)cc1F ; retrieve measured growth.
58.1

Param item = N=C(N)c1ccc(-c2ccc(-c3ccccc3)o2)o1 ; retrieve measured growth.
78.5

Param item = O=S(=O)(N=C1C(Cl)=C(Cl)C(=NS(=O)(=O)c2ccccc2)C(Cl)=C1Cl)c1ccccc1 ; retrieve measured growth.
97.5

Param item = O=C(c1ccc(Br)cc1)C(Br)C(c1ccc(Cl)cc1)C(c1ccccc1)[N+](=O)[O-] (stereo unspecified) ; retrieve measured growth.
99.3

Param item = CCCCC#Cc1c(I)n(C2OC(CO[Si](C)(C)C(C)(C)C)C3OC(C)(C)OC32)c(=O)n(C(=O)c2ccccc2)c1=O (stereo unspecified) ; retrieve measured growth.
67.7

Param item = Cc1cc(NCCCNc2ccnc3cc(Cl)ccc23)nc(Nc2ccc(C(=O)N3CCCCC3)cc2)n1 ; retrieve measured growth.
108

Param item = Cc1nn(-c2ccc([N+](=O)[O-])cc2)c2ncnc(N/N=C/c3ccccc3O)c12 ; retrieve measured growth.
35

Param item = CCOC(=O)C1=C(CC(O)c2ccc(OC)cc2OC)NC(=O)NC1c1ccccc1 (stereo unspecified) ; retrieve measured growth.
100

Param item = CCOC(=O)c1nnn(Cc2cc(=O)oc3ccc(O)cc23)c1C ; retrieve measured growth.
99.6

Param item = Cc1c(O)cc(-c2cnc(N/N=C/c3ccccc3)s2)c(O)c1C ; retrieve measured growth.
92.4

Param item = COC(=O)c1ccc2cc(OC)c(OC)cc2c1 ; retrieve measured growth.
97.6

Param item = COc1cc(-c2ccc(-c3ccc(C(=N)N)cc3)s2)cc(OC)c1OC ; retrieve measured growth.
82.5

Param item = COc1ccc(Nc2ncc(C#N)c(NCCCNC(=O)C3CCC3)n2)cc1 ; retrieve measured growth.
49

Param item = O=C(/C=C/c1ccccc1)c1cccc2ccccc12 ; retrieve measured growth.
41.2

Param item = COc1nc(/C=C\Nc2ccc3c(c2)OCCOCCOCCOCCO3)nc(OC)n1 ; retrieve measured growth.
103

The values you see were collected from PubChem BioAssay (NCI).
